Test system: Hepatitis C virus
Assay info: Antiviral activity against Hepatitis C virus genotype 1b infected in human HuH5.2 cells after 72 hrs by luciferase reporter gene assay
Assay type: functional, cell-based, Hepacivirus hominis
Condition label: Hepatitis C virus, genotype 1b, Huh-5-2, 72 h
pEC50 values, listed per item
Reminder that pEC50 means the negative base-10 logarithm of the concentration expressed in mol/L.

Here is how some molecules turned out for pEC50.
[Q] Form field: reported pEC50 of CCOC(=O)c1ccc(/C=C2\C=C(c3ccccc3)N(c3ccc(C)cc3Br)C2=O)cc1 (stereo in doubt; form 1)
[A] 4.42

[Q] Which value of pEC50 has been reported for CN(C)c1ccc(/C=C2\C(=O)N(c3ncc(-c4ccc(Cl)cc4)s3)N=C2c2ccccc2)cc1 in the records?
[A] 3.83

[Q] Would you mind telling me what pEC50 value was observed for O=C1/C(=C\c2ccccc2)C=C(c2ccccc2)N1c1ccccc1 ?
[A] 5.33

Others:
[Q] pEC50 lookup needed for COc1ccc(/C=C2/C=C(c3ccccc3)N(c3ccccc3)C2=O)cc1 , thanks.
[A] 5.23

[Q] Give the measured pEC50 of O=C1/C(=C\c2ccc(Br)cc2)C=C(c2ccccc2)N1c1ccccc1 .
[A] 5.37

[Q] Return reported pEC50; argument: CN1CCN(Cc2c3c(c(CN4CCN(C)CC4)c4c2CCC4)CCC3)CC1
[A] 5.11

[Q] Can you look up the measured pEC50 of N=c1c(S(=O)(=O)c2ccc(Cl)cc2)cc2c(=O)n3ccccc3nc2n1CCN1CCOCC1 for me?
[A] 4.55

[Q] Item O=C1/C(=C\c2ccc(-c3ccccc3)cc2)C=C(c2ccccc2)N1c1ccccc1 has what recorded pEC50?
[A] 4.79

[Q] State the recorded pEC50 for this entry: CCOC(=O)c1ccc(/C=C2/C=C(c3ccccc3)N(c3ccccc3)C2=O)cc1
[A] 4.57

[Q] Bench note: what pEC50 did CN1CCN(CC2=C(O)C(=O)N(CCc3ccccc3)C3C=CC=CN23)CC1 (centres undefined) show?
[A] 3.63

[Q] Need pEC50, item Cc1ccc(N2C(=O)/C(=C\c3ccccc3)C=C2c2ccccc2)c(Br)c1
[A] 5.39

[Q] Report pEC50 for CCOC(=O)c1ccc(/C=C2/C=C(c3ccccc3)N(c3ccc(C)cc3)C2=O)cc1 please.
[A] 4.65

// provenance: ChEMBL document CHEMBL4002613
